Source of measurements: PubChem BioAssay AID485317

# ASSAY_TARGET: FAD-linked sulfhydryl oxidase ALR (Homo sapiens) (UniProt P55789)
# Sequence (P55789 whole entry, looked up): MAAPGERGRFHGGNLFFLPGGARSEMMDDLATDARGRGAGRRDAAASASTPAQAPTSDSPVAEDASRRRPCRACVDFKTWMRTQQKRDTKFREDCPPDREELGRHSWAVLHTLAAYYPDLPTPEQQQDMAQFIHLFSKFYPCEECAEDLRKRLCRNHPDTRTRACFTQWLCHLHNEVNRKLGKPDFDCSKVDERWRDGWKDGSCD
# PROTOCOL_DETAILS: ALR-catalysed DTT oxidation blockers – biochemical, H2O2 detection, HRP-luminol luminescence, single point, primary screen (AID 485317)
# CONDITION_NOTES: purified ALR, stronger effect = higher value, concentration not given here
Among all 290,000 compounds or so, about 11,000 (3.8%) were called active. Only a selection was taken, and actives are over-represented in it overall.
Here, each record is paired with measured inhibition data.
The response must be a number in % with no trailing unit.

INSERT INTO assay_data (molecule, result_unit, readout_number) VALUES
  ('Cn1cccc1C(=O)OCC(=O)c1ccc(Br)s1', '%', 0.737),
  ('CS(=O)(=O)c1ccc(C(=O)OCC(=O)NNC(=O)COc2ccc(Cl)cc2)cc1', '%', -1.94),
  ('CCOC(=O)C1CCN(CC(=O)Nc2ccc(OC)c(S(=O)(=O)N3CCCCC3)c2)CC1', '%', -8.75),
  ('O=C1OC[C@@H]2CCCN2C(=O)[C@H](CC(=O)N(CCO)Cc2ccccc2)C/C=C\CC[C@@H]1Cc1ccc(F)cc1', '%', -10.6);

Now take the following molecule into account.
Entry under review: N#Cc1ccc(OCC(=O)NC(=O)NC2CCS(=O)(=O)C2)cc1 (stereo not given) . Reported inhibition?
-0.0725
